# Study System: ROCK1 (Homo sapiens, UniProt Q13464)
# Sequence (Q13464 whole entry, species assumed): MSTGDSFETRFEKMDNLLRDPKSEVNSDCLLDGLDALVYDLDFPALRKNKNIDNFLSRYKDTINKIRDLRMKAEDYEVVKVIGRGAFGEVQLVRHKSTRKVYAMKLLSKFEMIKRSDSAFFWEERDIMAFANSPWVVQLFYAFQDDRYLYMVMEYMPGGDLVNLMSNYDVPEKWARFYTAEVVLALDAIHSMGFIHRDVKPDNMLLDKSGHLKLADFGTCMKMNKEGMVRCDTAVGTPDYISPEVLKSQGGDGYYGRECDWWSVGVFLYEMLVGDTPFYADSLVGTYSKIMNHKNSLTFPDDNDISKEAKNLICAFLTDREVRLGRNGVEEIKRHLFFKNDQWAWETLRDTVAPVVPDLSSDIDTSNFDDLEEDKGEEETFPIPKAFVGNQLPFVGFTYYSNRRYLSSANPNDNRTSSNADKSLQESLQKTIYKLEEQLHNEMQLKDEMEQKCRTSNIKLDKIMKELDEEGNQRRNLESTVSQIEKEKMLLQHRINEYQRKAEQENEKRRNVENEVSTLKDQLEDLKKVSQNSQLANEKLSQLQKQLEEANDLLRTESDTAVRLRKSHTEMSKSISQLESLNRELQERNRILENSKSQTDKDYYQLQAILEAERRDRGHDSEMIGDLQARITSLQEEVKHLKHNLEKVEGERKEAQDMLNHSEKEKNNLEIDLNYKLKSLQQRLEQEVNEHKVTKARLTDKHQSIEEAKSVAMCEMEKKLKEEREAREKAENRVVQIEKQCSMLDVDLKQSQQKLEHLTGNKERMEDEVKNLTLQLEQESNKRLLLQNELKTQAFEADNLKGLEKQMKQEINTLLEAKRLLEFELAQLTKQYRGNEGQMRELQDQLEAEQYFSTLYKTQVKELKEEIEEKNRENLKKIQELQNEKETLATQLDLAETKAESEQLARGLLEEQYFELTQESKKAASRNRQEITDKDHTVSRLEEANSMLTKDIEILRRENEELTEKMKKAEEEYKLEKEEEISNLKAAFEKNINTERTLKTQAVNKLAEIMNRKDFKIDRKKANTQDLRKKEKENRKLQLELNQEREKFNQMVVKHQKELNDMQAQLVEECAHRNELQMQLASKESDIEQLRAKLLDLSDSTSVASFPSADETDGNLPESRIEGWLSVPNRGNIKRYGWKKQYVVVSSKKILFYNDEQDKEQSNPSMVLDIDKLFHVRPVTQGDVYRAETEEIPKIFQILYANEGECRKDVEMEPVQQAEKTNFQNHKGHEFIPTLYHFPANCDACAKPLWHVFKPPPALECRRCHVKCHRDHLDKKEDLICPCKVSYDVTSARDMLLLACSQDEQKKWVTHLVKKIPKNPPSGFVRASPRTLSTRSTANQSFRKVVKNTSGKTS
# Protocol Description: ROCK kinase inhibition assay, ROCK1 enzyme;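 note: kinase reaction with 0.5 µM final ATP, 75 min at room temperature, remaining ATP read by luminescence, percent of DMSO-only control minus background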
# Format: biochemical
# Experimental Context: ROCK1, Table 16
Collected pKi values appear next to each entry.
pKi (log units): -log10 of the concentration in mol/L.

| Compound | pKi |
| --- | --- |
| O=C(Nc1ccc2cnccc2c1)[C@@H]1C[C@H]1c1ccc(S(=O)(=O)Nc2ccccn2)cc1 (single isomer, unassigned) | 8.05 |

Write down the reported pKi of "O=C(Nc1ccc2cnccc2c1)[C@@H]1C[C@H]1c1ccc(I)cc1" , test system: ROCK1 (Homo sapiens, UniProt Q13464).
6.57

Write down the reported pKi of "O=C(Nc1ccc2cnccc2c1)[C@@H]1C[C@H]1c1ccc(S(=O)(=O)NC[C@@H]2CCCNC2)cc1" , test system: ROCK1 (Homo sapiens, UniProt Q13464).
8.40

Write down the reported pKi of "O=C(Nc1ccc2cnccc2c1)[C@@H]1C[C@H]1c1ccc(S(=O)(=O)NC[C@H]2CCCNC2)cc1" , test system: ROCK1 (Homo sapiens, UniProt Q13464).
8.30

Write down the reported pKi of "O=C(Nc1ccc2cnccc2c1)[C@@H]1C[C@H]1c1ccc(S(=O)(=O)N2CCNCC2)cc1" , test system: ROCK1 (Homo sapiens, UniProt Q13464).
7.32

---

# Study System: JAK2 (Homo sapiens, UniProt O60674)
# Sequence (O60674 whole entry, species assumed): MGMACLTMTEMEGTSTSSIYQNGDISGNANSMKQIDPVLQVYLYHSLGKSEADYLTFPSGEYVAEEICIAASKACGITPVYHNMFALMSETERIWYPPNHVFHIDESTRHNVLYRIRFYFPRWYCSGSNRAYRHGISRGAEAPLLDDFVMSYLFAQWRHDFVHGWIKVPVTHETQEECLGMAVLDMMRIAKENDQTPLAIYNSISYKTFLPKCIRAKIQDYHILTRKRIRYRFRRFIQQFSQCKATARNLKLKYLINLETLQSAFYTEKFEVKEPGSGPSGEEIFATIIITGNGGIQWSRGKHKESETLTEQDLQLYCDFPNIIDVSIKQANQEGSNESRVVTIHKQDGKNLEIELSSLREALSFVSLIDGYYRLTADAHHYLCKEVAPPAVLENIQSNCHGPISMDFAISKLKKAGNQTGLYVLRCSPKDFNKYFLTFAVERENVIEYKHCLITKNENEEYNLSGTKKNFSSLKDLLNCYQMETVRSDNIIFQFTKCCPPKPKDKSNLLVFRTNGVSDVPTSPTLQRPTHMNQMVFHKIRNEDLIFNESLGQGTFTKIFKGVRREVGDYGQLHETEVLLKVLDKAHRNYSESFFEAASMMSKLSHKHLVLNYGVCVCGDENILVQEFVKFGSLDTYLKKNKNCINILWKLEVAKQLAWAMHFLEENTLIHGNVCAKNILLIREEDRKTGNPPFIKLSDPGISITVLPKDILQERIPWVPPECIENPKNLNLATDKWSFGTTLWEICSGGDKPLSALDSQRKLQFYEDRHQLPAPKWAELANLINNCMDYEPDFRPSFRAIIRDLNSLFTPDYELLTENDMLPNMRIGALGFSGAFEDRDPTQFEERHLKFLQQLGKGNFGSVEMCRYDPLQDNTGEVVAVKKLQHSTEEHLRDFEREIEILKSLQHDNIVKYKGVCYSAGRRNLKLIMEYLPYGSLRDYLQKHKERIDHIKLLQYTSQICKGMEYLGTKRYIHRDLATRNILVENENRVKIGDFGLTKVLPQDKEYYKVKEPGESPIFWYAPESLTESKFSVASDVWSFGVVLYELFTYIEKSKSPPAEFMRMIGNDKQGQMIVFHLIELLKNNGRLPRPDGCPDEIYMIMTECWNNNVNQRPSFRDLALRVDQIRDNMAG
# Protocol Description: JAK kinase assay, JAK2 enzyme;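 note: JAK2 kinase reaction run 75 min at room temperature, leftover ATP read by Kinase-Glo luminescence, 11-point dilution series in 2.5% DMSO, percent of inhibitor-free DMSO control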
# Assay type: biochemical
# Experimental Context: Table 17; read-out: JAK2
Measured Quantity: pKi
pKi (log units): -log10 of the concentration in mol/L.

| Compound | pKi |
| --- | --- |
| O=C(Nc1ccc2cnccc2c1)[C@@H]1C[C@H]1c1ccc(F)c(S(=O)(=O)Nc2ccccn2)c1 [drawing 673] | 5.85 |

Param item = O=C(Nc1ccc2cnccc2c1)[C@@H]1C[C@H]1c1ccc(I)cc1 (relative stereo) [drawing 670] ; retrieve measured pKi.
6.19

Param item = O=C(Nc1ccc2cnccc2c1)[C@@H]1C[C@H]1c1ccc(F)c(S(=O)(=O)Nc2ccccc2)c1 [drawing 674] ; retrieve measured pKi.
5.52

---

# Study System: Rho Kinase
# Protocol Description: ROCK kinase inhibition assay (Rho Kinase Activity, isoform not given)
# Experimental Context: Table 15, mostly given as ranges
Measured Quantity: Ki

| Compound | Ki |
| --- | --- |
| O=C(O)c1ccc(C2CC(=O)N(c3ccc4cnccc4c3)C2)cc1 (centres unmarked) | 34000 to 68000 nM |
| O=Cc1ccc(C2CC(=O)N(c3ccc4cnccc4c3)C2)cc1 (centres unmarked) | 2600 to 6750 nM |
| O=C(NCCO)c1ccc(C2CC2C(=O)Nc2ccc3cnccc3c2)cc1 (centres unmarked) | 7 to 9.5 nM |
| O=C(NC[C@@H]1CCCNC1)c1ccc([C@@H]2C[C@H]2C(=O)Nc2ccc3cnccc3c2)cc1 | 0.1 to 1 nM |
| O=C(NCc1ccccn1)c1ccc(C2CC(=O)N(c3ccc4cnccc4c3)C2)cc1 (centres unmarked) | 4350 to 8400 nM |
| O=C1CC(c2ccc(CNCc3ccccn3)cc2)CN1c1ccc2cnccc2c1 (centres unmarked) | 1900 to 9300 nM |
| O=C(NCc1ccc(C(F)(F)F)cc1)c1ccc(C2CC2C(=O)Nc2ccc3cnccc3c2)cc1 (centres unmarked) | 5 to 75 nM |
| O=C(NCC1CCCNC1)c1ccc(C2CC2C(=O)Nc2ccc3cnccc3c2)cc1 (centres unmarked) | 1 to 8 nM |
| CC(C)(C)OC(=O)N1CCCC(CNC(=O)c2ccc(C3CC3C(=O)Nc3ccc4cnccc4c3)cc2)C1 (centres unmarked) | 10 to 37 nM |
| O=C(Nc1ccc2cnccc2c1)C1CC1c1ccc(COCc2ccccc2)cc1 (centres unmarked) | 350 to 600 nM |

Write down the reported Ki of "O=C(NCc1ccccn1)c1ccc([C@@H]2C[C@H]2C(=O)Nc2ccc3cnccc3c2)cc1" , test system: Rho Kinase.
1 to 2 nM

Write down the reported Ki of CC(C)(C)OC(=O)N1CCC(CNCc2ccc(C3CC3C(=O)Nc3ccc4cnccc4c3)cc2)CC1 (centres unmarked) , test system: Rho Kinase.
200 to 600 nM

Write down the reported Ki of CC(C)(C)OC(=O)c1ccc(C2CC(=O)N(c3ccc4cnccc4c3)C2)cc1 (centres unmarked) , test system: Rho Kinase.
14000 to 25000 nM

Write down the reported Ki of O=C(NCc1cccnc1)c1ccc(C2CC2C(=O)Nc2ccc3cnccc3c2F)cc1 (centres unmarked) , test system: Rho Kinase.
0.5 to 8 nM

---

# Study System: Rho Kinase
# Protocol Description: ROCK kinase inhibition assay (Rho Kinase Activity, isoform not given)
# Experimental Context: Table 15, mostly given as ranges
# Procedure: All compounds were initially prepared as 10 mM stocks in anhydrous dimethylsulfoxide (DMSO). […] Protein kinase activity was quantitated using Promega's KINASE-GLO™ luminescent Kinase Assay Kit according to the manufacturer's directions. […] Percent of Control (POC) values were determined for each concentration of compound tested according to the equation: POC=((Test well value−BKG)/(CTRL−BKG))*100 […]
pKi: −log10 of the molar value. Where a name gives a salt, the structure may show the parent alone.
Measured Quantity: pKi

In the examples that follow, each entry is paired with its recorded pKi.
| Compound | Study System | pKi |
| --- | --- | --- |
| O=C(Nc1ccc2cnccc2c1)[C@@H]1C[C@H]1c1ccc(S(=O)(=O)NCC2CCNCC2)cc1 (relative stereo) [Example E248D, dihydrochloride] | Rho Kinase | 8.05 to 8.30 |
| O=C(Nc1ccc2cnccc2c1)C1CC1c1ccccc1 (centres unmarked) | Rho Kinase | 7.89 to 8.30 |
| O=C(Nc1ccc2cnccc2c1)C1CC1c1ccc(CNCC2CCNCC2)cc1 (centres unmarked) | Rho Kinase | 6.52 to 6.90 |
| O=C(NCc1cccnc1)c1ccc([C@@H]2C[C@H]2C(=O)Nc2ccc3cnccc3c2)cc1 (relative stereo) [Example E8] | Rho Kinase | 8.00 to 9.00 |
| O=C(NCC1CCCN1)c1ccc(C2CC2C(=O)Nc2ccc3cnccc3c2)cc1 (centres unmarked) | Rho Kinase | 7.92 to 8.22 |

Param item = O=C(NCc1cccs1)c1ccc(C2CC2C(=O)Nc2ccc3cnccc3c2)cc1 (centres unmarked) ; retrieve measured pKi.
8.40 to 8.70

Param item = O=C(Nc1ccc(Oc2ccccc2)cc1)c1ccc(C2CC2C(=O)Nc2ccc3cnccc3c2)cc1 (centres unmarked) ; retrieve measured pKi.
6.96 to 7.12

Param item = O=C(Nc1ccncc1)c1ccc(C2CC2C(=O)Nc2ccc3cnccc3c2)cc1 (centres unmarked) ; retrieve measured pKi.
8.40 to 9.00

---

# Study System: ROCK1 (Homo sapiens)
# Protocol Description: ROCK kinase inhibition assay, ROCK1 enzyme
# Type: biochemical
# Experimental Context: ROCK1, Table 17
Structures can show the parent of a compound that is named as a salt.
Collected pKi values appear next to each entry.
pKi (log units): -log10 of the concentration in mol/L.

| Molecule | pKi |
| --- | --- |
| O=C(Nc1ccc2cnccc2c1)[C@@H]1C[C@H]1c1ccc(S(=O)(=O)NC2CCNCC2)cc1 (relative stereo) [dihydrochloride] | 8.09 |
| O=C(Nc1ccc2cnccc2c1)[C@@H]1C[C@H]1c1ccc(S(=O)(=O)Nc2ccccc2)cc1 (racemic) | 6.81 |
| O=C(Nc1ccc2cnccc2c1F)[C@@H]1CC1c1ccc(S(=O)(=O)Nc2ccccn2)cc1 (mixture of isomers) | 7.99 |
| O=C(Nc1ccc2cnccc2c1)[C@@H]1C[C@H]1c1ccc(S(=O)(=O)NC[C@@H]2CCCNC2)cc1 (relative stereo) [dihydrochloride] | 8.40 |

Param item = O=C(Nc1ccc2cnccc2c1)[C@@H]1C[C@H]1c1ccc(S(=O)(=O)Nc2cccnc2)cc1 [drawing 658] ; retrieve measured pKi.
7.07

Param item = O=C(Nc1ccc2cnccc2c1)[C@@H]1C[C@H]1c1ccc(S(=O)(=O)NCC2CCNCC2)cc1 (relative stereo) [drawing 663, dihydrochloride] ; retrieve measured pKi.
8.05

Param item = O=C(Nc1ccc2cnccc2c1)[C@@H]1C[C@H]1c1ccc(S(=O)(=O)NC[C@H]2CCCNC2)cc1 (relative stereo) [dihydrochloride] ; retrieve measured pKi.
8.30

---

# Study System: ROCK2 (Homo sapiens, UniProt O75116)
# Sequence (O75116 whole entry, species assumed): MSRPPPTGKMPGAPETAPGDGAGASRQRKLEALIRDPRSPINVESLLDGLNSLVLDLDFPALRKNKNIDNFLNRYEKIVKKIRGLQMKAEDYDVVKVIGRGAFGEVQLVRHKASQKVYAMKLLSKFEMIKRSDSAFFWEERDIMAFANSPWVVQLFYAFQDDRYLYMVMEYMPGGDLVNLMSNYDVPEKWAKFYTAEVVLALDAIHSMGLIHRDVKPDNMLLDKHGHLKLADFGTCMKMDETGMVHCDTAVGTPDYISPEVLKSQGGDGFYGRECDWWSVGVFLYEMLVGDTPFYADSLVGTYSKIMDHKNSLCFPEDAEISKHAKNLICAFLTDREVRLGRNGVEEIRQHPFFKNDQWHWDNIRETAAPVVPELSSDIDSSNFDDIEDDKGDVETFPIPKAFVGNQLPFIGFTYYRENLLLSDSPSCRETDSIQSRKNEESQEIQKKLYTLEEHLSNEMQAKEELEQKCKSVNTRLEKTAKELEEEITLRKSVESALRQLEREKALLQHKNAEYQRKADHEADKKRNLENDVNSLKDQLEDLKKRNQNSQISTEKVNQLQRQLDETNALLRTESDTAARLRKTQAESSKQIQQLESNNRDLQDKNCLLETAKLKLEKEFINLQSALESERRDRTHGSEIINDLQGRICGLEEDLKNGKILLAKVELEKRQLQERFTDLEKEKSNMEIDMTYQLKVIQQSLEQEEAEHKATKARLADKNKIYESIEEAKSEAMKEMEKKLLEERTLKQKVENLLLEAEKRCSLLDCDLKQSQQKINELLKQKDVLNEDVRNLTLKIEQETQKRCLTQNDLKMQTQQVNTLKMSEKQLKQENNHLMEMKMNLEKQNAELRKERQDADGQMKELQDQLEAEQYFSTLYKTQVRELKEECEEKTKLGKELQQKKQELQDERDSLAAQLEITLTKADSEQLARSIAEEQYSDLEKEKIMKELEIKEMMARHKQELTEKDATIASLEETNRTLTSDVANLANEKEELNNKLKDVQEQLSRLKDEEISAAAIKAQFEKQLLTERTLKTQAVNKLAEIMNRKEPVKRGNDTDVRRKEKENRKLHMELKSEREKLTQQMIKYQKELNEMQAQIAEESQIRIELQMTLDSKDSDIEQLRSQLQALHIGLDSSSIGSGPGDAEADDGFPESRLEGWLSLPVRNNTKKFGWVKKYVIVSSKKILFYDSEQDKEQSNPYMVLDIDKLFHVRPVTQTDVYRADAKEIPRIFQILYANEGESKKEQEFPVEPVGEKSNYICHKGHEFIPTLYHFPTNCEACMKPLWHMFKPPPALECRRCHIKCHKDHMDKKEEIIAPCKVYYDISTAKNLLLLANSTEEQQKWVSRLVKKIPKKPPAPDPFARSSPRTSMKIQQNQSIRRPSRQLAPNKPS
# Protocol Description: biochemical
# Experimental Context: ROCK2, Table 17
Where a name gives a salt, the structure may show the parent alone.
Entry class follows Ki: bottom range (below 7 nM), center range (7 nM to below 30 nM), top range (30 nM or more)

// below: answered compounds
| Compound | Group Label |
| --- | --- |
| O=C(Nc1ccc2cnccc2c1)[C@@H]1C[C@H]1c1ccc(S(=O)(=O)Nc2cccnc2)cc1 [drawing 658] | center range |
| O=C(Nc1ccc2cnccc2c1)[C@@H]1C[C@H]1c1ccc(S(=O)(=O)NCc2cccnc2)cc1 (relative stereo) | center range |
| O=C(Nc1ccc2cnccc2c1)[C@@H]1C[C@H]1c1ccc(S(=O)(=O)NC[C@H]2CCCNC2)cc1 (relative stereo) [dihydrochloride] | bottom range |
| O=C(Nc1ccc2cnccc2c1F)[C@@H]1CC1c1ccc(S(=O)(=O)Nc2ccccn2)cc1 (mixture of isomers) | bottom range |
| O=C(Nc1ccc2cnccc2c1)[C@@H]1C[C@H]1c1ccc(S(=O)(=O)N2CCNCC2)cc1 (relative stereo) [dihydrochloride] | top range |
| O=C(Nc1ccc2cnccc2c1)[C@@H]1C[C@H]1c1ccc(S(=O)(=O)Nc2ccccc2)cc1 (racemic) | top range |
| O=C(Nc1ccc2cnccc2c1)[C@@H]1C[C@H]1c1ccc(I)cc1 (relative stereo) [drawing 670] | top range |
| O=C(Nc1ccc2cnccc2c1)[C@@H]1C[C@H]1c1ccc(S(=O)(=O)NC[C@@H]2CCCNC2)cc1 (relative stereo) [dihydrochloride] | bottom range |

Which category fits this record: O=C(Nc1ccc2cnccc2c1)[C@@H]1C[C@H]1c1ccc(S(=O)(=O)NCC2CCNCC2)cc1 (relative stereo) [drawing 663, dihydrochloride]
center range

Which category fits this record: O=C(Nc1ccc2cnccc2c1)[C@@H]1C[C@H]1c1ccc(F)c(S(=O)(=O)Nc2ccccn2)c1 [drawing 673]
center range

Which category fits this record: O=C(Nc1ccc2cnccc2c1)[C@@H]1C[C@H]1c1ccc(F)c(S(=O)(=O)Nc2ccccc2)c1 [drawing 674]
top range

Reference for the values: patent US10858339B2
